System: HeLa cells
Experiment: cells
Assay type: cell-based
property: G2/M IC50 / EC50

GET /values?readout=G2/M IC50 / EC50&item= C=C(C)[C@H]1Cc2c(ccc3c2O[C@@H]2COc4cc(OC)c(OC)cc4[C@@H]2C3=O)O1 [rotenone, reference compound] 0.31 µM

====

In this section, each of the compounds is paired with its reported Basal_Viability ATP SW480 IC50/EC50.
System: SW480
Experiment: cells
Type: cell-based
Conditions: assay number 24
Write the number in µM without appending the unit.

>  <compound>
O=C(O)c1ccc(-n2nc(-c3ccccc3O)nc2-c2ccccc2O)cc1 [NCGC00263572-01]

>  <value units>
µM

>  <Basal_Viability ATP SW480 IC50/EC50>
0.0776

$$$$

Next compound, Basal_Viability ATP SW480 IC50/EC50 to be filled in.
What measured Basal_Viability ATP SW480 IC50/EC50 goes with O=c1c(C2CC(c3ccc(-c4ccc(Br)cc4)cc3)Cc3ccccc32)c(O)sc2ccccc12 (stereo not shown) [NCGC00262959-01] ? 0.187

====

Test system: DLD-1
Assay: cells
Type: cell-based
Settings: Homo sapiens, DLD-1; read-out: Basal_Viability ATP DLD-1
property: pIC50
In simple prose, pIC50 is minus the logarithm base ten of a concentration in moles per litre.

Please give the measured pIC50 for this compound: COc1cccc2c1C(=O)c1c(O)c3c(c(O)c1C2=O)C[C@@](O)(C(=O)CO)C[C@@H]3O[C@H]1C[C@H](N2CCO[C@H](OC)C2)[C@H](O)[C@H](C)O1 9.00

====

Below is a list of entries, each paired with its recorded Hela CellCycMod PI Cell Number IC50/EC50 value.
Test system: HeLa cells
Experiment: cells
Format: cell-based
Conditions: assay number 18; cell number

Observe how each entry below is paired with its result.
>  <molecule>
COCc1c(C(C)C)nc(C(C)C)c(/C=C/[C@@H](O)C[C@@H](O)CC(=O)[O-])c1-c1ccc(F)cc1.[Na+]

>  <result>
> 10 µM

$$$$
>  <molecule>
Cc1ccc(S(=O)(=O)NC(=O)NN2CC3CCCC3C2)cc1 (centres unmarked)

>  <result>
> 10 µM

$$$$
>  <molecule>
CC[C@H](C)C(=O)O[C@H]1C[C@@H](C)C=C2C=C[C@H](C)[C@H](CC[C@@H]3C[C@@H](O)CC(=O)O3)[C@H]21

>  <result>
> 10 µM

$$$$
>  <molecule>
Cc1ccc([N+](=O)[O-])[c]2c1[O][Hg]2

>  <result>
0.3851 µM

$$$$
>  <molecule>
CCCOc1ccc2nc(NC(=O)OC)[nH]c2c1

>  <result>
0.0467 µM

$$$$

Given O=c1[nH]c(=O)n([C@H]2C[C@H](O)[C@@H](CO)O2)cc1Br , state its recorded Hela CellCycMod PI Cell Number IC50/EC50. > 10 µM

// Hela CellCycMod PI Cell Number IC50/EC50 lookup, key: Cl.O[C@@H](CNC[C@H](O)[C@H]1CCc2cc(F)ccc2O1)[C@@H]1CCc2cc(F)ccc2O1 5.565 µM

Reported Hela CellCycMod PI Cell Number IC50/EC50 for C[C@@]12C(=O)OC(=O)[C@]1(C)C1CCC2O1 : what is it? 1.0094 µM
